Target: IZN17 (stable model of the gp41 N-terminal three strand coiled-coil)
Test: Saturation binding of fluorescein-labeled peptide 12 with IZN17 (fluorescence polarization)
Parameters: species or system HIV-1
Conditions: saturation binding curve, PBS buffer at 25° C.
Parameter: Kd (µM)
Expressed in µM, but write only the number.

[ask] Which Kd value is on record for Suc-MTWMEWDERINNYTC^Flu-NH2 [peptide 12] ?
[reply] 24
